- EXPERIMENTAL TARGET: T1, cyno TREM-1 on cells (cynomolgus monkey, UniProt A0A2K5VHG8 21-233)
- T1 sequence: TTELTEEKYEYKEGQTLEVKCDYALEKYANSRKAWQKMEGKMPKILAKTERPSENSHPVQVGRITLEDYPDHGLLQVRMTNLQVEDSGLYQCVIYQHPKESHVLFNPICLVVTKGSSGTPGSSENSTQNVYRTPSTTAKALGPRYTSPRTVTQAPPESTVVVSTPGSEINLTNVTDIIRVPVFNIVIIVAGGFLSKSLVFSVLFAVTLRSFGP
- PROTOCOL NOTES: cell-based or functional assay
Below: a set of entries, each annotated with reported Ab IC50-Cyno PBMC (Trial 1), TNFα release after cyno PGLYRP1/PGN.
Express the result in nM but write the number alone.

| BINDER | READOUT NUMBER |
| --- | --- |
| 30H2 (antibody, V domains shown) VH: EVQVLESGGGLVQPGESLRLSCTASGFTFNAYAMSWVRQAPGKGLEWVSTISGSGSTTYYADSVKGRFTISRDNSKNTLDLQMNSLRAADTAVYYCAKVAGSNFFFDHWGQGTLVTVSS VL: EIVMTQSPATLSVSPGERATLSCRASQSINSNLAWYQQKPGQAPRLLIYGAYTRATGIPDRFSGSGSGTEFTLTISSLQSEDFAVYYCQEFIMWPPWTFGLGTQVEIKR | 3.77 |

Proceeding to the next binder to report its Ab IC50-Cyno PBMC (Trial 1), TNFα release after cyno PGLYRP1/PGN.
Q: Recorded Ab IC50-Cyno PBMC (Trial 1), TNFα release after cyno PGLYRP1/PGN of 63F8 (antibody, V domains shown) VH: QVQLVQSGAEVKKPGASVKVSCKASGYTFTSYDINWVRQATGQGLEWMGRMNPKSGNAGYVQNFRGRVTMTRNTSISTAYMELSSLRSEDTAVYYCARGGRTSIWSFVFDYWGQGTLVTVSS VL: DIQMTQSPSSLSASVGDRVTITCQASQDISKHLNWYQQKPGKAPKLLIYDTSNLETGVPSRFSGSGSGTDFTFTISSLQPEDIATYNCQQYDKLPLTFGGGTKVEIKR , please.
Ans: 0.0226
